- TESTED_SYSTEM: SARS-CoV-2 M^pro protein (Severe acute respiratory syndrome coronavirus 2, UniProt P0DTD1)
- EXPERIMENTAL_PROTOCOL: biochemical
- CONDITION: isolated SARS-CoV-2 M^pro; three separate experiments in duplicate; read-out: IC50, mean±SD
PROPERTY: pIC50
pIC50 field: float, defined as -log10 of concentration (mol/L).

Please review the entries below; each comes with its answer.
{"INPUT_SMILES": "CC(C)[C@H](NC(=O)OC(C)(C)C)C(=O)N1C[C@@H](C)[C@@]1(Cc1ccccc1)C(=O)N[C@H](C#N)C[C@@H]1CCNC1=O", "TESTED_SYSTEM": "SARS-CoV-2 M^pro protein (Severe acute respiratory syndrome coronavirus 2, UniProt P0DTD1)", "pIC50": 7.15}
{"INPUT_SMILES": "CC(C)C[C@@]1(C(=O)N[C@H](C#N)C[C@@H]2CCNC2=O)[C@H](C)CN1C(=O)[C@@H](NC(=O)OCc1ccccc1)C(C)C", "TESTED_SYSTEM": "SARS-CoV-2 M^pro protein (Severe acute respiratory syndrome coronavirus 2, UniProt P0DTD1)", "pIC50": 5.70}
{"INPUT_SMILES": "CC(C)[C@H](NC(=O)OCc1ccccc1)C(=O)N1C[C@@H](C)[C@@]1(Cc1ccc(O)cc1)C(=O)N[C@H](C#N)C[C@@H]1CCNC1=O", "TESTED_SYSTEM": "SARS-CoV-2 M^pro protein (Severe acute respiratory syndrome coronavirus 2, UniProt P0DTD1)", "pIC50": 5.19}
{"INPUT_SMILES": "CC(C)[C@H](NC(=O)C(F)(F)F)C(=O)N1C[C@@H](C)[C@@]1(Cc1ccccc1)C(=O)N[C@H](C#N)C[C@@H]1CCNC1=O", "TESTED_SYSTEM": "SARS-CoV-2 M^pro protein (Severe acute respiratory syndrome coronavirus 2, UniProt P0DTD1)", "pIC50": 6.70}

# pIC50 of COC(=O)N[C@H](C(=O)N1C[C@@H](C)[C@@]1(Cc1ccccc1)C(=O)N[C@H](C=O)C[C@@H]1CCNC1=O)C(C)(C)C = 7.32

====

- TESTED_SYSTEM: SARS-CoV-2 M^pro protein (Severe acute respiratory syndrome coronavirus 2, UniProt P0DTD1)
- EXPERIMENTAL_PROTOCOL: biochemical
- CONDITION: isolated SARS-CoV-2 M^pro; three separate experiments in duplicate; read-out: IC50, mean±SD
The entries below are paired with their reported pIC50.
Notebook: values listed as pIC50 are -log10 of the concentration (mol/L).

Sample records with pIC50:
{"COMPOUND": "CC(C)[C@H](NC(=O)OC(C)(C)C)C(=O)N1C[C@@H](C)[C@@]1(CC1CCCCC1)C(=O)N[C@H](C#N)C[C@@H]1CCNC1=O [Example 36]", "RECORDED_VALUE": 6.72}
{"COMPOUND": "C[C@@H]1CN(C(=O)[C@@H](NC(=O)OC(C)(C)C)C(C)(C)C)[C@]1(Cc1ccccc1)C(=O)N[C@H](C#N)C[C@@H]1CCNC1=O [Example 14]", "RECORDED_VALUE": 6.52}
{"COMPOUND": "CC(C)C[C@@]1(C(=O)N[C@H](C#N)C[C@@H]2CCNC2=O)[C@H](C)CN1C(=O)[C@@H](NC(=O)C(F)(F)F)C(C)C [Example 3]", "RECORDED_VALUE": 5.59}

We now examine a further compound.
Field pIC50 (system: SARS-CoV-2 M^pro protein (Severe acute respiratory syndrome coronavirus 2, UniProt P0DTD1)) for entry C[C@@H]1CN(C(=O)[C@H](CCCCN)NC(=O)OCc2ccccc2)[C@]1(Cc1ccccc1)C(=O)N[C@H](C#N)C[C@@H]1CCNC1=O [Example 21] = 5.44
